test: Isoelectric focusing; type: physicochemical

[
  {
    "Molecule": "AVR3: Recombinant chicken avidin-related protein 3, produced in Sf9 insect cells (protein, UniProt P56733 25-150, looked up) Avidin-related protein 3: ARKCSLTGKWTNNLGSIMTIRAVNSRGEFAGTYLTAVADNPGNIKLSPLLGIQHKRACQPTFGFTVHWNFSESTSVFVGQCFIDRSGKEVLKTKWLQRLAVDDISDDWKATRVGYNNFTRQRTVEE",
    "pI by isoelectric focusing": "≈ 10"
  },
  {
    "Molecule": "AVR7: Recombinant chicken avidin-related protein 7, produced in Sf9 insect cells (protein, UniProt P56736 25-150, looked up) Avidin-related protein 7: ARKCSLTGEWDNNLGSNMTIGAVNDNGEFNGTYITAVADNPGNIKLSPLLGIQHKRACQPTFGFTVHWNFSESTSVFVGQCFIDRSGKEVLKTKWLQRLAVDDISDDWKATRVGYNNFTRQRTVEE",
    "pI by isoelectric focusing": "≈ 7"
  },
  {
    "Molecule": "AVR6: Recombinant chicken avidin-related protein 6, produced in Sf9 insect cells (protein, UniProt P56735 25-150, looked up) Avidin-related protein 6: ARKCSLTGEWDNNLGSIMTIGAVNDNGEFNGTYITAVADNPGNIKLSPLLGIQHKRACQPTFGFTVHWNFSESTSVFVGQCFVDRSGKEVLKTKWLQRLAVDDISDDWKATRVGYNNFTRQRTVEE",
    "pI by isoelectric focusing": "≈ 7"
  },
  {
    "Molecule": "AVR1: Recombinant chicken avidin-related protein 1, produced in Sf9 insect cells (protein, UniProt O13153 25-150, looked up) Avidin-related protein 1: ARKCSLTGKWDNDLGSIMTIGAVNDNGEFNGTYITAVADNPGNITRSPLLGIQHKRACQPTFGFTVHWNFSESTSVFVGQCFVDKSGKEVLKTKWLQRLAVDDISDDWKATRVGNNDFTRQRTVEE",
    "pI by isoelectric focusing": "≈ 7"
  },
  {
    "Molecule": "AVR2: Recombinant chicken avidin-related protein 2, produced in Sf9 insect cells (protein, UniProt P56732 25-150, looked up) Avidin-related protein 2: ARKCSLTGEWDNDLGSIMTIGAVNDNGEFDGTYITAVADNPGNITLSPLLGIQHKRASQPTFGFTVHWNFSESTSVFVGQCFVDRSGKEVLKTKWLQRLAVDDISDDWIATRVGNNDFTRQHTVEE",
    "pI by isoelectric focusing": "≈ 5"
  },
  {
    "Molecule": "AVR4/5: Recombinant chicken avidin-related protein 4/5 (AVR4 and AVR5 identical in coding sequence) (protein, UniProt P56734 25-150, looked up) Avidin-related protein 4/5: ARKCSLTGKWTNNLGSIMTIRAVNSRGEFTGTYLTAVADNPGNITLSPLLGIQHKRASQPTFGFTVHWNFSESTTVFTGQCFIDRNGKEVLKTMWLLRSSVNDISYDWKATRVGYNNFTRLCTVEE",
    "pI by isoelectric focusing": "≈ 10"
  }
]
